- System: ileum shrinkage induced by leukotoriene
- TEST METHOD NOTES: inhibitory effect of the test compounds on the ileum shrinkage induced by leukotriene
- Type: cell-based, guinea pigs
- RUN CONDITIONS: Cavia porcellus; test compound 10^-7 M; leukotoriene 10^-8 M; isolated ileum, Magnus tank, Tyrode solution; read-out: Inhibition ratio against shrinkage by leukotriene
Kindly state inhibition at 0.1 µM for each of the entries shown.
Respond numerically; units are % and should not be typed.

Fill in: inhibition at 0.1 µM of `COc1cc(C(C)=O)ccc1OCCCN1CCC(OC(c2ccccc2)c2ccccc2)CC1` is ___
30

Same question for `COC(=O)c1ccc(OCCCN2CCC(OC(c3ccccc3)c3ccccc3)CC2)cc1` please.
39

Same question for `C=CCc1c(OCCCN2CCC(OC(c3ccccc3)c3ccccc3)CC2)ccc2c(=O)cc(C(=O)OCCCC)oc12` please.
31

Same question for C=CCc1c(OCCCN2CCC(OC(c3ccc(Cl)cc3)c3ccccn3)CC2)ccc(C(C)=O)c1O (stereo not drawn) please.
33

Same question for `C=CCc1c(OCCCN2CCC(OC(c3ccccc3)c3ccccc3)CC2)ccc2c(C)cc(=O)oc12` please.
51

Same question for CCCc1c(OCC(O)CN2CCC(OC(c3ccc(F)cc3)c3ccc(F)cc3)CC2)ccc(C(C)=O)c1O (stereo not drawn) please.
35

Same question for `COC(=O)c1cc(=O)c2cc(C(C)C)cc(NC(=O)CCCN3CCC(OC(c4ccc(F)cc4)c4ccc(F)cc4)CC3)c2o1` please.
37

Same question for CCCc1c(OCC(O)CN2CCC(OC(c3ccc(Cl)cc3)c3ccccn3)CC2)ccc(C(C)=O)c1O (stereo not drawn) please.
30

Same question for C=CCc1c(OCC(O)CN2CCC(OC(c3ccc(Cl)cc3)c3ccccn3)CC2)ccc(C(C)=O)c1O (stereo not drawn) please.
36
